# measured target: Sam68 N-terminal region (UniProt Q07666 1-96)
# Sequence (Q07666 1-96): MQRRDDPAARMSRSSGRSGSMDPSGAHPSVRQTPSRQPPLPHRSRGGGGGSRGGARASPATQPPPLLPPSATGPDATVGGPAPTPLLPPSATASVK
# experiment: NMR titration; second estimate (probably Arg side chains); NMR: HSQC at 4 C (NMR buffer not given in material; purification in 50 mM sodium phosphate, 150 mM NaCl, pH 7.6 N-term / pH 7.0 C-term). Pull-down: 20 mM HEPES
# conditions used: protein: recombinant; tags: His-tag removed by TEV
readout kind: Kd (µM)
Only the number, expressed in µM, is required.

input: Which Kd reading was recorded for the binder CUGGGUGACACACUAGCUAUAGCAUUAAAAGACCGAGCAAGU (ssRNA) [G8.5 RNA] ?
output: 12
